This collection of values is drawn from the Deep4Chem optical property database.

protocol_summary: solvent given as SMILES
setup_conditions: in C1CCCCC1
# emission maximum annotations

smiles_notation	emission maximum / nm
C[Si](C)(C)C#CC#Cc1ccc2c3cccc4cccc(c5cccc1c52)c43	477.08
COC(=O)c1nc(-c2ccccc2)oc1C	297
CCN(CC)c1ccc2c(C(F)(F)F)cc(=O)oc2c1	433
Cc1cc(C)c(B(c2c(C)cc(C)cc2C)N2c3ccccc3C(c3ccccc3)(c3ccccc3)c3ccccc32)c(C)c1	522
COc1ccc(/C=C/c2ccccc2)cc1OC	372
COc1ccc(-c2ccc(-c3ccccc3)cc2)cc1	353
Nc1ccc2c(c1)C(=O)c1ccccc1-2	569
Clc1ccc(/C=C(\c2ccccc2)c2nc3ccccc3s2)cc1	420
Cc1ccc(Nc2ccc(Nc3ccc(C)cc3)c3c2C(=O)c2ccccc2C3=O)cc1	680
CN(C)c1c2ccccc2cc2ccccc12	391
CCCC1(CCC)c2ccccc2-c2ccc(-c3ccc(OC)cc3)cc21	345
C[SiH](C)c1ccc([SiH](C)C)c2ccccc12	333
